The measured values listed here are drawn from PubChem BioAssay (EPA / NIEHS).

- subjectOfTest: Agonist Androgen Response Element (ARE), AR (gene 367) (UniProt P10275)
- Sequence (P10275 whole entry, looked up): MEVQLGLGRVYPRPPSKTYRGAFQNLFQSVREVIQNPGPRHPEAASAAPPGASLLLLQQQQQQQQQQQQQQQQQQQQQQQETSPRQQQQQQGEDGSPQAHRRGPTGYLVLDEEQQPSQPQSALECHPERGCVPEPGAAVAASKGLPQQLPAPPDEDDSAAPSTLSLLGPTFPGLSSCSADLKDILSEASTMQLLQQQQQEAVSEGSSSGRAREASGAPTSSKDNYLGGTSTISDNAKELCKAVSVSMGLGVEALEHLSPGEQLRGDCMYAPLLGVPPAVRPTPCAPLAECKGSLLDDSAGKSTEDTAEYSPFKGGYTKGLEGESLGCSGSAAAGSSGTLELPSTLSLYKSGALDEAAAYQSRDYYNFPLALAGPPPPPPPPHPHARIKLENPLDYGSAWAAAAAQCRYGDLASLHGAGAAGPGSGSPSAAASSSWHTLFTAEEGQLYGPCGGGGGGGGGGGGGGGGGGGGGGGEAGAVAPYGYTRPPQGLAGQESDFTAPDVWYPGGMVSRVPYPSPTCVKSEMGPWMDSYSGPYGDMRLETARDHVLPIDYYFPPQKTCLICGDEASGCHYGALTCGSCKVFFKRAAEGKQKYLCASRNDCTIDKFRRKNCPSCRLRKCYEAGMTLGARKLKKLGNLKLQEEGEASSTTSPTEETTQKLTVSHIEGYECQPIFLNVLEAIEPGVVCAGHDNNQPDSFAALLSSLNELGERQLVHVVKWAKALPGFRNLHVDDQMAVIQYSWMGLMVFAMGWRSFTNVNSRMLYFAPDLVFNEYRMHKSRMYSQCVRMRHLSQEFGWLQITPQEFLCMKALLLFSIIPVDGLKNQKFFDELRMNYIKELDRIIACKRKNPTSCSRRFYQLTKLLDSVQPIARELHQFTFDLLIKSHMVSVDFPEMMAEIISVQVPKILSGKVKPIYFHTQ
- experimentalDetails: OT_AR_ARELUC_AG_1440: Odyssey Thera (OT) 24-hour CHO-K1 Luciferase Assay for Agonist Androgen Response Element (ARE) (AID 2283379)
Results filed as inconclusive are left out. Calls of active or inactive are those of the source. How the source made its calls: active means hit-call score of the fitted dose curve at least 0.9, where 1 is the maximum; inconclusive means response in the unintended direction; inactive means score below 0.9.
valueType: AC50

Solved cases below.
> print(dat)
                                   compound            result
1  CCCCCCCCCC=CCC1CC(=O)OC1=O (stereo not given)  21.2 µM (active)
2                 COc1cc([N+](=O)[O-])ccc1N          inactive
3  Cc1cc(C(=C2C=CC(=Nc3ccc(S(=O)(=O)O)cc3)C=C2)c2ccc(Nc3ccc(S(=O)(=O)O)cc3)cc2)cc(S(=O)(=O)O)c1N          inactive
4                        CC(=O)Nc1ccc(O)cc1          inactive

Here's the next entry for you.
State the recorded AC50 for this entry: NC(=NCCCCCCN=C(N)/N=C(\N)Nc1ccc(Cl)cc1)/N=C(\N)Nc1ccc(Cl)cc1
inactive
